measurement_protocol: clinical
Set-up: species or system human
assay_context: human, in vivo, po, 125 mg, AUC0-24h
measurement_name: AUC(0-t) (ng·h/mL)
Provide the reading as a plain figure in ng·h/mL.

AUC(0-t) for CC(=O)c1c(C)c2cnc(Nc3ccc(N4CCNCC4)cn3)nc2n(C2CCCC2)c1=O is 2230

----------
measurement_protocol: clinical
Set-up: species or system human
assay_context: human, in vivo, po, 100 mg, Cmax
measurement_name: Cmax (ng/mL)
# value in ng/mL; strip the unit string

The recorded Cmax for entry CC(=O)c1c(C)c2cnc(Nc3ccc(N4CCNCC4)cn3)nc2n(C2CCCC2)c1=O [palbociclib] equals 70

----------
measurement_protocol: clinical
Design: species or system human
assay_context: human, in vivo, po, 100 mg, AUC0-24h
measurement_name: AUC(0-t) (ng·h/mL)
Give the quantity in ng·h/mL, number only.

The reported AUC(0-t) of the molecule CC(=O)c1c(C)c2cnc(Nc3ccc(N4CCNCC4)cn3)nc2n(C2CCCC2)c1=O was 1480

----------
measurement_protocol: clinical
Set-up: species or system human
assay_context: human, in vivo, po, 100 mg, Tmax
measurement_name: Tmax (h)
Write down the numeric answer in h and omit the unit.

Item: CC(=O)c1c(C)c2cnc(Nc3ccc(N4CCNCC4)cn3)nc2n(C2CCCC2)c1=O [palbociclib] | Tmax: 8

Where do these numbers come from? They come from paper PMC5047057.
